A collection of compounds and their measured EC50
experimentalSystem: recombinant DYRK1A kinase (Homo sapiens (Human))
protocolSummary: DYRK1A kinase assay (Ser/Thr 18 peptide Z-lyte FRET assay)
conditionSet: recombinant DYRK1A 0.25 µg/mL, ATP 15 µM, Ser/Thr peptide 18 4 µM, one hour at room temperature; table head prints EC50, method says IC50

{"compound": "Cc1nc2ccc(-c3ccn4nc(N[C@@H]5CCN(C6COC6)C[C@@H]5F)ncc34)nc2n1CC(F)F [Compound 1954]", "EC50": "6 nM"}
{"compound": "Cc1nc2ncc(-c3ccn4nc(NC5CCC(F)(F)CC5)ncc34)cc2n1Cc1nnc([C@@H](C)F)o1 [Compound 1915]", "EC50": "9 nM"}
{"compound": "Cc1nc2ccc(-c3ccn4nc(NC5CCN(C)CC5)ncc34)nc2n1CC(F)F [Compound 1131]", "EC50": "16 nM"}
{"compound": "CN1CCC(Nc2ncc3c(-c4cnc5nccn5c4)ccn3n2)CC1 [Compound 279]", "EC50": "49 nM"}

Data provenance is patent US20230312605A1.
